FYI, the data here is from BindingDB's records for doi:10.1021/jm050524f.

Biological target: Hypoxia-inducible factor 1-alpha (Homo sapiens, UniProt Q16665)
Sequence (Q16665 whole entry): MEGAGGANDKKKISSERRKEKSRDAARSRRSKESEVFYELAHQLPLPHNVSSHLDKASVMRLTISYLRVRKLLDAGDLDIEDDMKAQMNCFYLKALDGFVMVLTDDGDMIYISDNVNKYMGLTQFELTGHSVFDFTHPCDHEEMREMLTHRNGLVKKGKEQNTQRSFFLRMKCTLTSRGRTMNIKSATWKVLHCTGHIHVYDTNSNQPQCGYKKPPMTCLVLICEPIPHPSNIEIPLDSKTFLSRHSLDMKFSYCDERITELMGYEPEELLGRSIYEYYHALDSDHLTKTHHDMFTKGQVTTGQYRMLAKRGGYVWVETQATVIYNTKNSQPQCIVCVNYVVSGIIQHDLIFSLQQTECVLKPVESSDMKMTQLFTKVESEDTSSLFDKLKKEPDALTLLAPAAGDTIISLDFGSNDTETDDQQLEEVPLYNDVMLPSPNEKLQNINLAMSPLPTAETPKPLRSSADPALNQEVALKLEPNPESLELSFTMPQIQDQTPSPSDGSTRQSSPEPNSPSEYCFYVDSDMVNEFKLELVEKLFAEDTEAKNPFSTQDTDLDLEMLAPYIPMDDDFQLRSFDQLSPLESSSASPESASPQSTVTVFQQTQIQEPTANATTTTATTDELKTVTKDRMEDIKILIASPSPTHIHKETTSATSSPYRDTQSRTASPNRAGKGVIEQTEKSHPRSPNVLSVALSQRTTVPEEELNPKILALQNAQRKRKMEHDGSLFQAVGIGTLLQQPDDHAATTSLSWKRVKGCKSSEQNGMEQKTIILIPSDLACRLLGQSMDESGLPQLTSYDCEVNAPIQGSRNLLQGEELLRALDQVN
Test: Effective concentration to inhibit production of hypoxia inducible factor 1-alpha protein
metric: pEC50
Numbers only, as −log10 of the molar value.

What pEC50 appears in the records for this compound with Hypoxia-inducible factor 1-alpha (Homo sapiens, UniProt Q16665)? COc1c(C(C)n2cnc3ncccc32)ccc2c1C=CC(C)(C)O2 (stereo unspecified)
4.46

----------
Task for the reader: assign each of the following compounds its reported IC50.
Test: Inhibitory concentration against NADH ubiquinone oxidoreductase
Answers are plain numbers, in nM.

Using the record for COc1cc(COC(=O)c2ccc3c(c2)C=CC(C)(C)O3)cc(OC)c1OC , report its IC50.
55

More entries:
Could you share which IC50 value was measured for C=C(Cc1cc(OC)c(OC)c(OC)c1)c1ccc2c(c1)CCC(C)(C)O2 ?
18

----------
Answer each item with its documented IC50.
Experiment: Inhibitory concentration against NADH-ubiquinone oxidoreductase
One number for each entry, in µM.

Would you mind telling me what IC50 value was observed for C=C(Cc1cc(OC)c(OC)c(OC)c1)c1ccc2c(c1)CCC(C)(C)O2 ?
0.018

Continuing:
Item under review: COc1cc(COC(=O)c2ccc3c(c2)C=CC(C)(C)O3)cc(OC)c1OC . Reported IC50?
0.055
